Target: FGFR2 (h) (Homo sapiens)
Sequence (P21802 22-821): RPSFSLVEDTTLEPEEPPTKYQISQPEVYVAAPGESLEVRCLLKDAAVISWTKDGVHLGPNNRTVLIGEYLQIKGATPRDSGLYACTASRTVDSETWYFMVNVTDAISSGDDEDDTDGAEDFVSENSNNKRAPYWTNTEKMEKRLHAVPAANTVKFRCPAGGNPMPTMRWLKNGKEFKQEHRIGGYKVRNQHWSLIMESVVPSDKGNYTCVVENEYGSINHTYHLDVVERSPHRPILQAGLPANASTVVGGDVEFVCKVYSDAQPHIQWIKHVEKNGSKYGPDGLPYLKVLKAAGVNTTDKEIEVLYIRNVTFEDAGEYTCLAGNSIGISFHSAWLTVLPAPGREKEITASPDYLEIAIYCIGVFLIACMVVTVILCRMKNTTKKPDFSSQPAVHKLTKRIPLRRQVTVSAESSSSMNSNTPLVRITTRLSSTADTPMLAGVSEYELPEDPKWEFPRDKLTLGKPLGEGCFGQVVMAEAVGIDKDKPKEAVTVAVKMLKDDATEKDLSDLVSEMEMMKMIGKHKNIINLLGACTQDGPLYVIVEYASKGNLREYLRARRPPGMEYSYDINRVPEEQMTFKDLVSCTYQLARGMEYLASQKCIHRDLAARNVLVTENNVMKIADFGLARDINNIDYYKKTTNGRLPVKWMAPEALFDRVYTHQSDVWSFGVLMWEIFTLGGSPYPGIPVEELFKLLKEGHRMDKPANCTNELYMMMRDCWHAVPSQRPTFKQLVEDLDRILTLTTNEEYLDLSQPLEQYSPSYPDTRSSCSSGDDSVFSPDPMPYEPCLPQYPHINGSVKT
Test: FGFR2 (enzymatic assay), TR-FRET
Assay type: biochemical
Details: 0.4 μM ATP, 60 min; pIC50 = -log IC50 (M); average if tested multiple times; read-out: FGFR 2 pIC50 (converted)
Assay endpoint: IC50 (M)

>>> endpoint_value("COc1cc(OC)cc(C(=O)c2ccc3ncc(-c4cnn(C)c4)cc3c2)c1 [Compound 31]")
"3.09e-08"
>>> endpoint_value("COc1cc(OC)cc(N(Cc2ncccn2)c2ccc3ncc(-c4cnn(C)c4)cc3c2)c1 [Compound 8]")
"2e-08"
>>> endpoint_value("COc1cc(OC)cc(/C(=C\\C#N)c2ccc3ncc(-c4cnn(C)c4)cc3c2)c1 [Compound 30]")
"3.47e-08"
>>> endpoint_value("COc1cc(OC)cc(N(CCCN2CCCC2=O)c2ccc3ncc(-c4cnn(C)c4)cc3c2)c1 [Compound 10]")
"1.29e-08"
>>> endpoint_value("COc1cc(OC)cc(N(Cc2ncc[nH]2)c2ccc3ncc(N4CCOCC4)cc3c2)c1 [Compound 55]")
"2e-08"
>>> endpoint_value("COc1cccnc1C#CCN(c1ccc2ncc(-c3cnn(C)c3)cc2c1)c1c(F)c(OC)cc(OC)c1F [Compound 27]")
"5.62e-09"

----------
Target: Ba/F3-KDR-transfected cells (Homo sapiens, UniProt P35968, cells depend on it, form not given)
Construct: BAF3-KDR (MIN IL3 Alamar Blue pIC50); other: minus IL3; 24 hours, Alamar Blue
Sequence (P35968 whole entry, change not shown): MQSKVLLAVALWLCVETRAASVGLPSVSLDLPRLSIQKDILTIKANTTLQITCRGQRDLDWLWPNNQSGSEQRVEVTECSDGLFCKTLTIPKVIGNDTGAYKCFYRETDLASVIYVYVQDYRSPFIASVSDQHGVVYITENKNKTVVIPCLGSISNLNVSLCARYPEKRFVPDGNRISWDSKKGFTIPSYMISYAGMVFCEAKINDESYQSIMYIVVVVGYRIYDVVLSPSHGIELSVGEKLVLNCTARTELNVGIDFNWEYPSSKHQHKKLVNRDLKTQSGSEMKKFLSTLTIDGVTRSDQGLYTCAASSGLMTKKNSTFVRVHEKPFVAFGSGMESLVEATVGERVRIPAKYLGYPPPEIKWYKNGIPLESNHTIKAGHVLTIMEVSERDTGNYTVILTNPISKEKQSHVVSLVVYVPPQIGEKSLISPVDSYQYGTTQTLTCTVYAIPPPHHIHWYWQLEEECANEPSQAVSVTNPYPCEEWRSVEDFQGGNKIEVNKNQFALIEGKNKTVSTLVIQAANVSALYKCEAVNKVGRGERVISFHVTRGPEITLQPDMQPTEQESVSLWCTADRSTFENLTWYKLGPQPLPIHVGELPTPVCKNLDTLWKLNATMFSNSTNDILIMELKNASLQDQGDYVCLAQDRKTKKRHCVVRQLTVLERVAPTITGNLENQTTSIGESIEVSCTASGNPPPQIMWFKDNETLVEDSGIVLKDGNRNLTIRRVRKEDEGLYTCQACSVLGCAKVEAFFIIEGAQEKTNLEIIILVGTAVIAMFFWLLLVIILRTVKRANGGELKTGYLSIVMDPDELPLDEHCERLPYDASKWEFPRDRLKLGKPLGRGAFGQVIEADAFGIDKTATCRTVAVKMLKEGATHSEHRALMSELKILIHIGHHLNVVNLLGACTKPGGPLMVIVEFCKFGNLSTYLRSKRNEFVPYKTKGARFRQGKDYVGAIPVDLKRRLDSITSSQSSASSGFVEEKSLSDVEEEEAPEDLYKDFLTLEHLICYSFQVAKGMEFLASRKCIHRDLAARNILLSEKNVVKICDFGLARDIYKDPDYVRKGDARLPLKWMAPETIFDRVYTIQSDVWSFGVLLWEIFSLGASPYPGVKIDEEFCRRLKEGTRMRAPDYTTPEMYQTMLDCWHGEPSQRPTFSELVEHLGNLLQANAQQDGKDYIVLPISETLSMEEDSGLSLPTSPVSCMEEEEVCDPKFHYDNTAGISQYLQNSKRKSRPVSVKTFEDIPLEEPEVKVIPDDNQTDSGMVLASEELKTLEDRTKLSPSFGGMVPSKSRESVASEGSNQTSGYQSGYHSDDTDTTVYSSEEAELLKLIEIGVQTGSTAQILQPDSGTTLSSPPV
Assay: Ba/F3-KDR (minus IL3 or plus IL3) cellular proliferation assay, Alamar Blue
Assay type: cell-based
Conditions: minus IL3; 24 hours, Alamar Blue
Below is a list of entries, each paired with its recorded BAF3-KDR (MIN IL3 Alamar Blue pIC50) value.
Assay endpoint: BAF3-KDR (MIN IL3 Alamar Blue pIC50)

>>> endpoint_value("COc1cc(OC)cc(N(CCNC(C)C)c2ccc3ncc(-c4cnn(C5CCCCO5)c4)cc3c2)c1 (stereo not shown) [Compound 22]")
5.79
>>> endpoint_value("COc1cc(OC)cc(N(CCCO)c2ccc3ncc(-c4cnn(C)c4)cc3c2)c1 [Compound 4]")
5.45
>>> endpoint_value("COc1cc(OC)cc(N(CCCN2CCCO2)c2ccc3ncc(-c4cnn(C)c4)cc3c2)c1 [Compound 19]")
5.1
>>> endpoint_value("COc1cc(OC)cc(N(CC(O)C(F)(F)F)c2ccc3ncc(-c4cnn(C)c4)cc3c2)c1 (single isomer, unassigned) [Compound 24]")
5.05
>>> endpoint_value("CNCCN(c1ccc2ncc(-c3cnn(C)c3)cc2c1)c1c(F)c(OC)cc(OC)c1F [Compound 43]")
6.51
>>> endpoint_value("COc1cc(OC)cc(N(CCCN2CCCC2CNS(=O)(=O)C(F)(F)F)c2ccc3ncc(-c4cnn(C)c4)cc3c2)c1 (stereo not shown) [Compound 47]")
6.44
>>> endpoint_value("COc1cc(OC)cc(N(CCCNCC(F)(F)F)c2ccc3ncc(-c4cnn(C)c4)cc3c2)c1 [Compound 5]")
5.18
>>> endpoint_value("COc1cc(OC)cc(N(CCNC(C)C)c2ccc3ncc(-c4cnn(CCS(C)(=O)=O)c4)cc3c2)c1 [Compound 14]")
5.45
>>> endpoint_value("COc1cc(OC)c(F)c(N(CCNC(C)C)c2ccc3ncc(-c4cnn(C)c4)cc3c2)c1 [Compound 2]")
6.18
>>> endpoint_value("COc1cc(OC)c(F)c(N(CC#Cc2ncccc2OC)c2ccc3ncc(-c4cnn(C)c4)cc3c2)c1 [Compound 26]")
5.11
>>> endpoint_value("COc1cc(OC)cc(N(CCNC(C)C)c2ccc3ncc(-c4cnn(C)c4)cc3c2)c1 [Compound 1]")
5.635
>>> endpoint_value("C#CCN(c1cc(OC)cc(OC)c1)c1ccc2ncc(-c3cnn(C)c3)cc2c1 [Compound 6]")
5.07
>>> endpoint_value("COc1cc(OC)cc(N(CCO)c2ccc3ncc(-c4ccn(C)c4)cc3c2)c1 [Compound 61]")
5.40
>>> endpoint_value("COc1cc(OC)cc(N(CCNC(C)C)c2ccc3ncc(-c4cnn(CCO)c4)cc3c2)c1 [Compound 13]")
5.57
>>> endpoint_value("COc1cc(OC)cc(/C(=C\\C#N)c2ccc3ncc(-c4cnn(C)c4)cc3c2)c1 [Compound 30]")
5.55

----------
Molecular target: Ba/F3-Flt3-transfected cells (Homo sapiens, UniProt P36888, cells depend on it, form not given)
Construct: BAF3-FLT3 (MIN IL3 Alamar Blue pIC50); other: minus IL3; 24 hours, Alamar Blue
Experiment: Ba/F3-Flt3 (minus IL3 or plus IL3) cellular proliferation assay, Alamar Blue
Assay type: cell-based
Settings: minus IL3, 24 hours
Assay endpoint: BAF3-FLT3 (MIN IL3 Alamar Blue pIC50)

>>> endpoint_value("COc1cc(OC)cc(C(O)c2ccc3ncc(-c4cnn(C)c4)cc3c2)c1 (centres unmarked)")
"<5.47"
>>> endpoint_value("COc1cc(OC)c(F)c(N(CCNC(C)C)c2ccc3ncc(-c4cnn(C)c4)cc3c2)c1")
5.34
>>> endpoint_value("COc1cc(OC)cc(N(CCCN2CCCO2)c2ccc3ncc(-c4cnn(C)c4)cc3c2)c1")
6.03
>>> endpoint_value("COc1cc(OC)cc(N(CC2CCN(c3nccc(OC)n3)C2)c2ccc3ncc(-c4cnn(C)c4)cc3c2)c1 (centres unmarked)")
"<5"
>>> endpoint_value("COc1cc(OC)cc(N(Cc2nccn2S(=O)(=O)N(C)C)c2ccc3ncc(-c4cccnc4)cc3c2)c1")
"<5"
>>> endpoint_value("COc1cc(OC)cc(N(CCCN2CCCC2=O)c2ccc3ncc(-c4cnn(C)c4)cc3c2)c1")
"<5"
>>> endpoint_value("COc1cc(OC)cc(N(Cc2ncc[nH]2)c2ccc3ncc(-c4cccnc4)cc3c2)c1")
"<5"
>>> endpoint_value("COc1cc(OC)cc(N(CCCN)c2ccc3ncc(-c4cnn(C)c4)cc3c2)c1")
"<5"

----------
Biological target: FGFR3 (h) (Homo sapiens, UniProt P22607)
Experiment: FGFR3 (enzymatic assay), TR-FRET
Type: biochemical
Details: hFGFR 3 pIC50, 25 μM ATP, 60 min; pIC50 = -log IC50 (M); average if tested multiple times
IC50 by entry:
Assay endpoint: IC50 (M)

>>> endpoint_value("COc1cc(OC)cc(N(Cc2ncc[nH]2)c2ccc3ncc(C4=CCNCC4)cc3c2)c1")
"2.45e-09"
>>> endpoint_value("COc1cc(OC)c(F)c(N(CC#Cc2ncccc2OC)c2ccc3ncc(-c4cnn(C)c4)cc3c2)c1")
"4.9e-09"
>>> endpoint_value("COc1cc(OC)cc(N(CCCN2CCCO2)c2ccc3ncc(-c4cnn(C)c4)cc3c2)c1")
"5.62e-09"
>>> endpoint_value("COc1cc(OC)c(F)c(N(CCNC(C)C)c2ccc3ncc(-c4cnn(C)c4)cc3c2)c1")
"3.89e-09"

----------
Target: Ba/F3-FGFR3-transfected cells (Homo sapiens, UniProt P22607, cells depend on it, form not given)
Construct: BAF3-FGFR3 (MIN IL3 Alamar Blue- pIC50); other: minus IL3; 24 hours, Alamar Blue
Sequence (P22607 whole entry, change not shown): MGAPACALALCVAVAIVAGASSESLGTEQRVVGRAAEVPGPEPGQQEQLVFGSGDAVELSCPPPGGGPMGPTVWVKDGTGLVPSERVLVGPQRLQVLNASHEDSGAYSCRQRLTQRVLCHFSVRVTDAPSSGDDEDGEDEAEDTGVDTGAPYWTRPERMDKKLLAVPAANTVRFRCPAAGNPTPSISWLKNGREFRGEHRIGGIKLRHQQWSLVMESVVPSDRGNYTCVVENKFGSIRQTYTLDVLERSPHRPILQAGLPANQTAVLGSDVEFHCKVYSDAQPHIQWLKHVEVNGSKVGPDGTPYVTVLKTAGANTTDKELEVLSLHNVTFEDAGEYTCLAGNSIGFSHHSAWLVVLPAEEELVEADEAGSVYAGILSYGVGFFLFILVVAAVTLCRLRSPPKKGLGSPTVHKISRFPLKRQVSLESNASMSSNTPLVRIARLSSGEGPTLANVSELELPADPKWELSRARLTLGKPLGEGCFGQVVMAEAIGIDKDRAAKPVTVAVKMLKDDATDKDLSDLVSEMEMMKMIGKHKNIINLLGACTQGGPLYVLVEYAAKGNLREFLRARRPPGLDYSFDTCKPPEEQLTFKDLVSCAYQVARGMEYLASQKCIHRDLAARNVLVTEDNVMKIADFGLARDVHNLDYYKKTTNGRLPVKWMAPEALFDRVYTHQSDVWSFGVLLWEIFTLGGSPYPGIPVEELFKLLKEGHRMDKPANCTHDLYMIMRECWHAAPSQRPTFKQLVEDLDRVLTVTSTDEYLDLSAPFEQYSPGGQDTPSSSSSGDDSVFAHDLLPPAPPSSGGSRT
Assay: Ba/F3-FGFR3 (minus IL3 or plus IL3) cellular proliferation assay, Alamar Blue
Format: cell-based
Conditions: minus IL3; 24 hours, Alamar Blue
Reported BAF3-FGFR3 (MIN IL3 Alamar Blue- pIC50) values follow for various compounds
Assay endpoint: BAF3-FGFR3 (MIN IL3 Alamar Blue- pIC50)

>>> endpoint_value("COc1cc(OC)cc(N(CCO)c2ccc3ncc(-c4cnn(C)c4)cc3c2)c1 [Compound 3]")
6.33
>>> endpoint_value("COc1cc(OC)cc(N(CCNC(C)C)c2ccc3ncc(-c4cn[nH]c4)cc3c2)c1 [Compound 21]")
7.57
>>> endpoint_value("COc1cc(OC)cc(N(CCO)c2ccc3ncc(-c4ccn(C)c4)cc3c2)c1 [Compound 61]")
5.84
>>> endpoint_value("COc1cc(OC)cc(N(Cc2ncc[nH]2)c2ccc3ncc(-c4ccccc4)cc3c2)c1 [Compound 52]")
6.00
>>> endpoint_value("COc1cc(OC)cc(N(CC2CCC(=O)N2)c2ccc3ncc(-c4cnn(C)c4)cc3c2)c1 (centres unmarked) [Compound 44]")
6.61
>>> endpoint_value("COc1cc(OC)cc(N(CCNC(C)C)c2ccc3ncc(-c4cnn(C5CCCCO5)c4)cc3c2)c1 (centres unmarked) [Compound 22]")
7.78
>>> endpoint_value("COc1cc(OC)cc(/C(=C\\C#N)c2ccc3ncc(-c4cnn(C)c4)cc3c2)c1 [Compound 30]")
5.89

----------
Target: Ba/F3-FGFR3-transfected cells (Homo sapiens, UniProt P22607, cells depend on it, form not given)
Construct: BAF3-FGFR3 (MIN IL3 Alamar Blue- pIC50); other: minus IL3; 24 hours, Alamar Blue
Experiment: Ba/F3-FGFR3 (minus IL3 or plus IL3) cellular proliferation assay, Alamar Blue
Type: cell-based
Details: minus IL3; 24 hours, Alamar Blue
Assay endpoint: BAF3-FGFR3 (MIN IL3 Alamar Blue- pIC50)

>>> endpoint_value("C#CCN(c1cc(OC)cc(OC)c1)c1ccc2ncc(-c3cnn(C)c3)cc2c1 [Compound 6]")
5.79
>>> endpoint_value("COc1cc(OC)cc(N(CCCO)c2ccc3ncc(-c4cnn(C)c4)cc3c2)c1 [Compound 4]")
6.17
>>> endpoint_value("COc1cc(OC)cc(N(Cc2ncc[nH]2)c2ccc3ncc(N4CCOCC4)cc3c2)c1 [Compound 55]")
5.77
>>> endpoint_value("COc1cc(OC)cc(C(=O)c2ccc3ncc(-c4cnn(C)c4)cc3c2)c1 [Compound 31]")
5.46
>>> endpoint_value("COc1cc(OC)cc(C(CC(N)=O)c2ccc3ncc(-c4cnn(C)c4)cc3c2)c1 (stereo not shown) [Compound 40]")
5.08
>>> endpoint_value("COc1cccnc1C#CCN(c1ccc2ncc(-c3cnn(C)c3)cc2c1)c1c(F)c(OC)cc(OC)c1F [Compound 27]")
8.22
>>> endpoint_value("COc1cc(OC)cc(N(CCO)c2ccc3ncc(N4CCOCC4)cc3c2)c1 [Compound 54]")
5.16
>>> endpoint_value("COc1cc(OC)cc(N(CCO)c2ccc3ncc(-c4ccccc4)cc3c2)c1 [Compound 50]")
5.19
>>> endpoint_value("COc1cc(OC)cc(N(CC#Cc2ncccc2OC)c2ccc3ncc(-c4cnn(C)c4)cc3c2)c1 [Compound 17]")
7.63
>>> endpoint_value("COc1cc(OC)cc(/C(=C/C#N)c2ccc3ncc(-c4cnn(C)c4)cc3c2)c1 [Compound 29]")
5.29
>>> endpoint_value("COc1cc(OC)cc(N(CC#Cc2nccn2C)c2ccc3ncc(-c4cnn(C)c4)cc3c2)c1 [Compound 48]")
7.62
>>> endpoint_value("COc1cc(OC)cc(N(CCCN2CCCC2=O)c2ccc3ncc(-c4cnn(C)c4)cc3c2)c1 [Compound 10]")
6.2
>>> endpoint_value("COc1cc(OC)cc(N(Cc2nccn2S(=O)(=O)N(C)C)c2ccc3ncc(-c4cnn(C)c4)cc3c2)c1 [Compound 9]")
6.17
>>> endpoint_value("COc1cc(OC)c(F)c(N(CCNC(C)C)c2ccc3ncc(-c4cnn(C)c4)cc3c2)c1 [Compound 2]")
7.86
